Ref: paper PMC5540273

System: MAP4K5
Settings: concentration: 1 μM, replicates: in singlicate; n = 1;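 also: KINOMEscan kinase panel screen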
readout-label: %Inh (%)
Respond with the bare value in %.

So what %Inh did Cc1c(Cn2c(C)nn3c(=O)cc(N4CCOC(C)C4)nc23)cccc1C(F)(F)F (stereo not shown) [GSK2344444] get with MAP4K5?
16

Also, Cc1ccc(NC(=O)c2ccnc(N3CCN(C)CC3)c2)cc1-c1ccc(C(=O)NCC2CC2)cc1 [GW775604] please.
0

Please give the result for COc1cc2c(cc1OCCN1CCN(C)CC1)ncc1c3ccc(C#N)cc3[nH]c21 too.
22

And the next one, Nc1nc(-c2ccc3c(N)n[nH]c3c2)cc(N2CCCC2)n1 [GSK2227430] ?
0

----------
So I've got a bunch of compounds here, and I need their %Inh values.
Test system: AURKB
Settings: concentration: 1 μM, replicates: in singlicate; n = 1
Write the number in % without appending the unit.

Reported %Inh, compound COC(=O)Nc1nc2cc(Oc3ccc(NC(=O)Nc4cc(F)ccc4F)cc3)ccc2[nH]1.Cl [GW701424] : ____
94.5

Moving on to the next compound: CC(=O)Nc1ccc(COc2ccc(Nc3ccnc4cc(-c5ccccn5)ccc34)cc2)cc1.Cl [GW440148]
67

Query O=C1NC(=O)C(N2CCc3ccccc32)=C1c1cccc(Cl)c1 [SB-408010] next
7

Similarly, c1ccc(-c2n[nH]cc2-c2ccnc3ccccc23)nc1 [GW271431] ?
20

Repeat with Cn1ccc2ncnc(Oc3ccc(NC(=O)Nc4ccncc4)c(Cl)c3)c21
3

Next up: O=c1cc(N2CCOCC2)nc2n(Cc3cccc(F)c3)ccn12 [GSK2297430]
0

For NS(=O)(=O)CCc1cccc(Nc2nccc(-c3c(-c4cccc(NC(=O)c5c(F)cccc5F)c4)nn4ccccc34)n2)c1 [GSK336735] then?
81

Same thing, different compound: Cn1cc(-c2ccc3c(c2)CCN3C(=O)Cc2ccccc2Cl)c2c(N)ncnc21 [GSK2608885]
86

And the next one, Cc1c2ccc(N(C)c3ccnc(Nc4cccc(S(N)(=O)=O)c4)n3)cc2nn1Cc1ccccc1.Cl.Cl [GW787226] ?
54

Would you kindly repeat that for N#Cc1ccc(-c2cc(-c3c[nH]nc3-c3ccccn3)ccn2)cc1 [GW693028] ?
32

How about O=C(Nc1cccc(-c2nn3ncccc3c2-c2ccnc(Nc3cccc(C(F)(F)F)c3)n2)c1)c1c(F)cccc1F [GSK299495] ?
29

Proceed to CN1c2ccc(CNc3ccc(F)cc3)cc2-c2c(cnn2C)S1(=O)=O
21

Here is the next compound: Cc1cn2c(=O)cc(N3CCOCC3)nc2n1Cc1cccc(Cl)c1Cl [GSK2334006]
26

For C[C@@H](Oc1cc(-n2cnc3ccc(NC(=O)NC(C)(C)C)cc32)sc1C(N)=O)c1ccccc1Cl [GSK346294] then?
22

Please do the same for Cc1c(Cn2c(C)nn3c(=O)cc(N4CCOC(C)C4)nc23)cccc1C(F)(F)F (stereo not drawn) [GSK2344444] as well.
0

# iterate: Fc1ccc(-c2ncn(CCCN3CCOCC3)c2-c2cccnc2)cc1 [SB-211743]
31

Input O=C(NCCNc1ccnc(Nc2ccc(F)cc2)n1)c1cc2ccccc2s1 [GSK1379874]
0

Next: COc1ccc(Nc2nccc(N3CCC(NC(=O)Nc4cc(C)ccc4C)C3)n2)cc1 (stereo not drawn) [GSK1379741]
37

Item: O=C(Nc1n[nH]c2cc(-c3cccc(F)c3)ccc12)C1CC1 [SB-735464]
39

Also need CCc1nc(-c2cccc(C)c2)c(-c2ccnc(NCc3ccccc3)c2)s1 , thanks.
14

# iterate: Nc1nccc(-c2c(-c3ccc(F)cc3)ncn2C2CCN(CC(F)(F)F)CC2)n1 [SB-236560]
0

Then this compound: COc1ccc(CNC(=O)NC2CCN(c3ccnc(Nc4ccc(OC)cc4)n3)C2)cc1 (stereo not drawn) [GSK1379727]
22

Thanks! And COc1cc2ncn(-c3cc(OCc4sccc4Cl)c(C(N)=O)s3)c2cc1OC [GSK448459] ?
12

Another compound to check: CC(C)(C)n1cnc2c(N)ncnc21 [SKF-97359]
15
